// data source = patent US20120045393A1

# SYSTEM_NAME: LHRH receptor (LHRH binding sites) on EFO-27 human ovarian cancer cells (human)
# TEST_PROTOCOL: competition with [125I-Tyr8]BRU-2477 for binding to EFO-27 cells
Non-standard residues stand in square brackets, D forms with d. pGlu = O=C1CC[C@@H](C(=O)O)N1; azaGly = NNC(=O)O
QUANTITY_MEASURED: EC50 (nM)

Some solved entries appear below for comparison.
BINDER	QUANTITY_MEASURED	RECORDED_MEASUREMENT
XRWSHXWXXX (as printed: DO3A10CM-Dnal2-Arg-Trp-Ser-His-Darg-Trp-Bpa4-Pip-azaGly-NH2) [BRU-2996]	EC50	350
XRWSHXWXPX (as printed: DO3A10CM-Dnal2-Arg-Trp-Ser-His-Darg-Trp-Bpa4-Ψ(CH2N)-Pro-azaGly-NH2 (reduced amide bond between 8 and 9)) [BRU-3081]	EC50	300
XRWSHXWXPX (as printed: DO3A10CM-Dnal2-Arg-Trp-Ser-His-Darg-Trp-Bpa4-Pro-azaGly-NH2) [BRU-2813]	EC50	420
[pGlu]HWSH[dR]WYP[azaGly]-NH2 [BRU-2477]	EC50	840

I: XRWSHXWXXX (not fully specified; as printed: DO3A10CM-Dnal2-Arg-Trp-Ser-His-Darg-Trp-Bpa4-Aze-azaGly-NH2) [BRU-2993]
II: XRWSHXWXXX (as printed: DO3A10CM-Dnal2-Arg-Trp-Ser-His-Darg-Trp-Bpa4-Flp4-azaGly-NH2) [BRU-2994]
III: [pGlu]HWSH[dR]WYP[azaGly]-NH2 (also: reduced amide bond Ψ(CH2N) between Tyr8 and Pro9) [BRU-3122]
IV: XRWSHXW (as printed: DO3A10CM-Dnal2-Arg-Trp-Ser-His-Darg-Trp-OH) [BRU-3046]
Provide the items ranked by increasing EC50. Give the labels in the order requested.
I, II, III, IV
(I: 380 nM, II: 600 nM, III: 3130 nM, IV: 15800 nM)
